Would you kindly list abundance fitness for each of these variants?
B1: POU domain, class 3, transcription factor 3, residues 320 to 388; numbered along this chain, P20264 (parent)
chain: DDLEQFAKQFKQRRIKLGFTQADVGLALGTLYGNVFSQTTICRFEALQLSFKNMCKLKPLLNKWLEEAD

Variants of: B1
Assay Protocol: abundance fitness (aPCA) (normalised: wild type 0, dead -1); higher = more abundant; growth selection in yeast, the domain comes from the species named
Condition Context: Homo sapiens
One number for each entry.

Data request: So what's the measured abundance fitness for this one? S37D
Data returned: -0.157

Data request: Then this variant: Y32A
Data returned: -0.412

Data request: Then this variant: T40P
Data returned: -0.704

Provide each entry's abundance fitness from the list below.
1. G29P
2. G25S

Data returned:
-0.658
-0.069
